Target: HLA-B*15:01
Assay: IEDB peptide-MHC binding, purified MHC/competitive/fluorescence; filed as Kd, often an IC50 or EC50 that approximates it; bounds were set here for any values at or beyond the usual limits of such assays
Settings: source organism: Zaire ebolavirus
Can you tell me Kd for the items I'm about to list?

Problem: Would you mind telling me what Kd value was observed for `LEFNSSLAI` ?
Solution: ≥ 20 µM

Problem: Suppose we examine the sequence `GRYNLISPK` ; what Kd value has been reported?
Solution: ≥ 20 µM

Problem: Endpoint output: Kd of `SLLHESTLK` . Value?
Solution: ≥ 20 µM

* * *

Target: HLA-B*08:01
Experiment: IEDB peptide-MHC binding, purified MHC/direct/fluorescence; filed as Kd, often an IC50 or EC50 that approximates it; bounds were set here for any values at or beyond the usual limits of such assays
Details: source organism: Corynebacterium glutamicum
pKd: −log10 of the molar value.
VALUE KIND: pKd

Problem: May I ask what pKd has been recorded for `VLPVPGASV` ?
Solution: ≤ 4.70

* * *

Target: HLA-A*11:01
Assay: IEDB peptide-MHC binding, purified MHC/competitive/radioactivity; filed as Kd, often an IC50 or EC50 that approximates it; bounds were set here for any values at or beyond the usual limits of such assays
Settings: source organism: Vaccinia virus Copenhagen
pKd: −log10 of the molar value.
The label depends only on pKd: criterion met if it is at least 8, criterion not met if it is smaller.

Problem: Quick check, pKd >= 8? `IVNNQESNK`
Solution: criterion not met

Problem: Answer whether pKd of `LTILDDNLYK` is greater than or equal to 8.
Solution: criterion met

Problem: Kindly determine if pKd recorded for `IFAFIDFSK` is above or exactly 8.
Solution: criterion not met

Problem: Can `SSLDQTHIK` be said to have pKd at or above 8?
Solution: criterion not met

Problem: Test whether the sequence `QLMYALEPRK` records pKd of 8 or higher.
Solution: criterion not met

* * *

Biological target: HLA-B*44:02
Assay: IEDB peptide-MHC binding, purified MHC/direct/fluorescence; filed as Kd, often an IC50 or EC50 that approximates it; bounds were set here for any values at or beyond the usual limits of such assays
Conditions: source organism: Mammarenavirus lassaense
VALUE KIND: Kd

Problem: Item `SHGIDVTDL` has what recorded Kd?
Solution: ≥ 20 µM

* * *

Target: HLA-A*26:01
Test: IEDB peptide-MHC binding, purified MHC/direct/fluorescence; filed as Kd, often an IC50 or EC50 that approximates it; bounds were set here for any values at or beyond the usual limits of such assays
Conditions: source organism: Candidatus Rickettsia tarasevichiae
VALUE KIND: Kd

Problem: Consider the sequence shown here: `SSEADCFTY` What is its recorded Kd?
Solution: ≥ 20 µM

* * *

Molecular target: HLA-B*40:01
Assay: IEDB peptide-MHC binding, purified MHC/competitive/fluorescence; filed as Kd, often an IC50 or EC50 that approximates it; bounds were set here for any values at or beyond the usual limits of such assays
Details: source organism: Bacillus cereus G9241
VALUE KIND: pKd
Please note pKd is a logarithmic value: minus log10 of concentration in mol/L. Answer with that number alone.

Problem: Consider the sequence shown here: `GEIVLCHVL` What is its recorded pKd?
Solution: 8.30

* * *

Target: HLA-A*24:03
Assay: IEDB peptide-MHC binding, purified MHC/direct/fluorescence; filed as Kd, often an IC50 or EC50 that approximates it; bounds were set here for any values at or beyond the usual limits of such assays
Conditions: source organism: Pseudomonas putida
VALUE KIND: Kd

Problem: # query: Kd of entry `NWDWGVFFK`
Solution: ≥ 20 µM
